- Species: Rattus norvegicus
- assay.method.text: Open TG-GATES - Regimen: Daily Repeat
- Type: toxicity, organism-based, Sprague-Dawley
- Set-up: regimen Daily Repeat, gender Male, age 6 weeks
- experimental.conditions: in vivo, po, 0 mg/kg, […], tissue Blood, route gavage, dose level Control, time 28 day
In this section, each of the compounds is paired with its reported Eos.
value.kind: Eos (%)

CN(C)CCCN1c2ccccc2CCc2ccccc21 ... 1.2
CN1C(=O)CN=C(c2ccccc2)c2cc(Cl)ccc21 ... 1.2
NNC(=O)c1ccncc1 ... 1.2
CC(C)OC(=O)C(C)(C)Oc1ccc(C(=O)c2ccc(Cl)cc2)cc1 [FENOFIBRATE] ... 1.2
COc1ccc2[nH]c([S+]([O-])Cc3ncc(C)c(OC)c3C)nc2c1 (stereo not given) ... 1
COC1=CC(=O)C[C@@H](C)[C@]12Oc1c(Cl)c(OC)cc(OC)c1C2=O ... 0.8
O=C(CCCN1CCC(O)(c2ccc(Cl)cc2)CC1)c1ccc(F)cc1 ... 0.8
NC(N)=Nc1nc(CSCCC(N)=NS(N)(=O)=O)cs1 ... 1
CN(C)CCN(Cc1cccs1)c1ccccn1 ... 1
CC1=C(/C=C/C(C)=C/C=C/C(C)=C/CO)C(C)(C)CCC1 ... 1

Ref: ChEMBL document CHEMBL3885861
